The reported numbers originate from paper PMC5540273.

test system: RIOK1; conditions: concentration: 1 μM, replicates: in singlicate; n = 1;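 further: KINOMEscan kinase panel screen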
recorded metric: %Inh (%)

[
  {
    "compound": "CNc1ncnc2[nH]ncc12",
    "unit tag": "%",
    "number": 0
  },
  {
    "compound": "Cc1ccc(C(=O)NCC(N)=O)cc1-n1c(C)cc(OCc2ccc(F)cc2F)c(Br)c1=O",
    "unit tag": "%",
    "number": 1
  },
  {
    "compound": "Cc1nnc(-c2ccc3occ(-c4ccc(C(C)O)cc4)c3c2)o1 (centres unmarked)",
    "unit tag": "%",
    "number": 0
  },
  {
    "compound": "NS(=O)(=O)c1cccc(-c2ccc3ncc(N4CCOCC4)nc3c2)c1",
    "unit tag": "%",
    "number": 22
  },
  {
    "compound": "NCC(NC(=O)c1cc(-c2cn[nH]c2)c(-c2ccnc3[nH]ccc23)s1)c1ccccc1.O=C(O)C(F)(F)F.O=C(O)C(F)(F)F (centres unmarked)",
    "unit tag": "%",
    "number": 99.4
  },
  {
    "compound": "Cc1cccc(-c2nc(-c3ccc(S(C)(=O)=O)cc3)sc2-c2ccncc2)c1",
    "unit tag": "%",
    "number": 19
  },
  {
    "compound": "Cc1c2ccc(N(C)c3ccnc(Nc4cccc(S(N)(=O)=O)c4)n3)cc2nn1Cc1ccccc1.Cl.Cl",
    "unit tag": "%",
    "number": 0
  },
  {
    "compound": "Cc1nnc(-c2ccc(C)c(-c3ccc(C(=O)Nc4ccc(NS(C)(=O)=O)cc4)cc3)c2)o1",
    "unit tag": "%",
    "number": 22
  },
  {
    "compound": "Fc1ccc(-c2ncn(CCCN3CCOCC3)c2-c2cccnc2)cc1",
    "unit tag": "%",
    "number": 17
  },
  {
    "compound": "O=C1NC(=O)C(N2CCc3ccccc32)=C1c1cccc(Cl)c1",
    "unit tag": "%",
    "number": 5
  },
  {
    "compound": "CCc1nc(-c2cccc(C)c2)c(-c2ccnc(NCc3ccccc3)c2)s1",
    "unit tag": "%",
    "number": 10
  },
  {
    "compound": "CN1c2ccc(CNc3ccc(F)cc3)cc2-c2c(cnn2C)S1(=O)=O",
    "unit tag": "%",
    "number": 18
  },
  {
    "compound": "CC(=O)Nc1ccc(COc2ccc(Nc3ccnc4cc(-c5ccccn5)ccc34)cc2)cc1.Cl",
    "unit tag": "%",
    "number": 13
  },
  {
    "compound": "Cc1nnc(-c2ccc3ncc(-c4ccc(S(C)=O)cc4)n3c2)o1 (centres unmarked)",
    "unit tag": "%",
    "number": 0
  },
  {
    "compound": "O=C(Nc1cccc(-c2nn3ncccc3c2-c2ccnc(Nc3cccc(C(F)(F)F)c3)n2)c1)c1c(F)cccc1F",
    "unit tag": "%",
    "number": 22
  },
  {
    "compound": "O=C(NCCCN1CCOCC1)c1cccc(Nc2nccc(Nc3ccc(Oc4ccccc4)cc3)n2)c1",
    "unit tag": "%",
    "number": 31
  },
  {
    "compound": "Cc1cccc(-c2nc(Nc3ccc4ncsc4c3)c3ccccc3n2)n1",
    "unit tag": "%",
    "number": 20
  }
]

---

tested on: DCAMKL1; construct: gene DCLK1; settings: concentration: 1 μM, replicates: in singlicate; n = 1
Returns: string. Value is condition met if measured %Inh is below 5%, and condition not met if it is greater than or equal to it.

[
  {
    "compound": "NS(=O)(=O)CCc1cccc(Nc2nccc(-c3c(-c4cccc(NC(=O)c5c(F)cccc5F)c4)nn4ccccc34)n2)c1",
    "category": "condition not met"
  },
  {
    "compound": "COc1ccc(Nc2ncc(C#N)c(Nc3ccccc3C(N)=O)n2)cc1N1CCN(C)CC1.Cl",
    "category": "condition not met"
  },
  {
    "compound": "Cc1ccc(C(=O)NCC(N)=O)cc1-n1c(C)cc(OCc2ccc(F)cc2F)c(Br)c1=O",
    "category": "condition met"
  },
  {
    "compound": "COCCNC(=O)c1ccc(-c2cc(C(=O)NC3CC3)cc(F)c2C)cc1",
    "category": "condition not met"
  },
  {
    "compound": "Cc1cn2c(=O)cc(N3CCOCC3)nc2n1Cc1cccc(Cl)c1Cl",
    "category": "condition met"
  },
  {
    "compound": "COc1cc(Nc2nccc(N3CCC(NC(=O)c4cccc(NC(C)=O)c4)C3)n2)cc(OC)c1OC (centres unmarked)",
    "category": "condition not met"
  },
  {
    "compound": "Cc1nnc(-c2ccc(C)c(-c3ccc(C(=O)Nc4ccc(NS(C)(=O)=O)cc4)cc3)c2)o1",
    "category": "condition not met"
  }
]

---

Each entry below carries its reported %Inh.
system: ERK8; construct: gene MAPK15; details: concentration: 1 μM, replicates: in singlicate; n = 1
recorded metric: %Inh (%)

[
  {
    "compound": "Cc1cn2c(=O)cc(N3CCOCC3)nc2n1Cc1cccc(Cl)c1Cl [GSK2334006]",
    "number": 24
  },
  {
    "compound": "COC(=O)Nc1nc2cc(Oc3ccc(NC(=O)Nc4cc(F)ccc4F)cc3)ccc2[nH]1.Cl [GW701424]",
    "number": 0
  },
  {
    "compound": "CCCCCc1nc2c(N)ncnc2n1CCCCC [SKF-97255]",
    "number": 29
  },
  {
    "compound": "Fc1ccc(-c2nn3c(OCC(F)(F)F)cccc3c2-c2ccncc2)cc1 [GW514784]",
    "number": 0
  },
  {
    "compound": "Nc1nc(-c2ccc3c(N)n[nH]c3c2)cc(N2CCCC2)n1 [GSK2227430]",
    "number": 0
  }
]

---

system: PLK4; settings: concentration: 1 μM, replicates: in singlicate; n = 1
Decide using %Inh: a value greater than or equal to 20% is True, a smaller one is False.

[
  {
    "compound": "CN(C(=O)c1ccc(-c2cc(-c3c[nH]nc3-c3ccccn3)ccn2)cc1)C1CCOCC1 [GW810083]",
    "category": "False"
  },
  {
    "compound": "O=C1NC(=O)C(N2CCc3ccccc32)=C1c1cccc(Cl)c1 [SB-408010]",
    "category": "True"
  },
  {
    "compound": "CCc1ccnc(/C=C/c2n[nH]c3cc(Sc4ccccc4C(=O)NC)ccc23)c1",
    "category": "True"
  },
  {
    "compound": "CN(C1=C(c2ccccc2)C(=O)NC1=O)c1ccccc1 [SB-334860]",
    "category": "True"
  },
  {
    "compound": "CN1c2ccc(NCc3ccc(F)cc3)cc2-c2c(cnn2C)S1(=O)=O",
    "category": "False"
  },
  {
    "compound": "O=C1Cc2cc(Nc3nc(NCc4cccc(S(=O)(=O)C(F)(F)F)c4)ncc3C(F)(F)F)ccc2N1",
    "category": "False"
  },
  {
    "compound": "Cl.Nc1ncnc2occ(-c3ccc(NC(=O)Nc4cc(C(F)(F)F)ccc4F)cc3)c12 [SB-707548]",
    "category": "True"
  },
  {
    "compound": "O=C(NCCNc1ccnc(Nc2ccc(F)cc2)n1)Nc1ccccc1F [GSK1379880]",
    "category": "False"
  },
  {
    "compound": "Cc1ccc(NC(=O)c2ccnc(N3CCN(C)CC3)c2)cc1-c1ccc(C(=O)NCC2CC2)cc1 [GW775604]",
    "category": "False"
  },
  {
    "compound": "O=C(c1ccc(-c2cc(-c3c[nH]nc3-c3ccccn3)ccn2)cc1)N1CCOCC1 [GW812171]",
    "category": "False"
  },
  {
    "compound": "O=C(NCCCN1CCOCC1)c1cccc(Nc2nccc(Nc3ccc(Oc4ccccc4)cc3)n2)c1 [GW663929]",
    "category": "False"
  },
  {
    "compound": "Nc1nccc(-c2c(-c3ccc(F)cc3)ncn2C2CCN(CC(F)(F)F)CC2)n1 [SB-236560]",
    "category": "False"
  },
  {
    "compound": "Nc1nc(-c2ccc3c(N)n[nH]c3c2)cc(N2CCCC2)n1 [GSK2227430]",
    "category": "False"
  },
  {
    "compound": "[2H]C([2H])(c1cccc(C(F)(F)F)c1C)n1ccn2c(=O)nc(N3CCOCC3)cc12 [GSK2336394]",
    "category": "False"
  },
  {
    "compound": "COc1ccc(Nc2ncc(C#N)c(Nc3ccccc3C(N)=O)n2)cc1N1CCN(C)CC1.Cl [GSK1558669]",
    "category": "True"
  },
  {
    "compound": "Cc1cn2c(=O)cc(N3CCOCC3)nc2n1Cc1cccc(Cl)c1Cl [GSK2334006]",
    "category": "False"
  }
]
